Target: T1, human NPY2R (human, UniProt P49146 1-381)
T1 sequence (looked up): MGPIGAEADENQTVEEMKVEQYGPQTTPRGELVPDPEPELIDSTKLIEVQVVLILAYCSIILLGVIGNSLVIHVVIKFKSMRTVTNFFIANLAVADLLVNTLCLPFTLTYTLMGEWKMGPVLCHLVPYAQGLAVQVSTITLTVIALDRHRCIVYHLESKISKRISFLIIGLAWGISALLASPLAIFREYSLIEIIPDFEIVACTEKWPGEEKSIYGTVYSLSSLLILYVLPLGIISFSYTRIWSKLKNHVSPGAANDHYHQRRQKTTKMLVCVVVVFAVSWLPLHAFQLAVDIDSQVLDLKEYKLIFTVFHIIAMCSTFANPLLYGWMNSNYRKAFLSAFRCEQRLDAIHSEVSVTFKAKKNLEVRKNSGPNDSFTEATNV
Test: cell-based or functional assay
Square brackets hold non-standard residues; d marks the D form. Side chains are listed from the residue outwards. Phe(2-F) = N[C@@H](Cc1ccccc1F)C(=O)O; αMeF = C[C@](N)(Cc1ccccc1)C(=O)O; Iva = CC[C@](C)(N)C(=O)O; Oda = not defined here; Aib = CC(C)(N)C(=O)O
Please respond with reported Agonist activity (EC50), Cre-luc reporter assay for every item in the list.

input: State its Agonist activity (EC50), Cre-luc reporter assay: H-Y[Aib]EGT[αMeF]TSDK([Gly-Gly-Gly-Gly-Pal])[Aib]I[Aib]LDKQAQ[Iva]EFVRHLLNK[Aib]TRQR[Phe(2-F)]-NH2
output: 0.031 nM

input: Identify Agonist activity (EC50), Cre-luc reporter assay associated with the binder H-Y[Aib]EGT[αMeF]TSDK([Gly-Gly-Gly-Gly-Oda])SI[Aib]LEKQRQ[Iva]EFVRHLLNK[Aib]TRQRY-NH2 (reading uncertain; also: printed as H-Tyr-Aib-Glu-Gly-Thr-αMePhe-Thr-Ser-Asp-Lys(-Gly-Gly-Gly-Gly-Oda)-Ser-Ile-Aib-Leu-Glu-Lys-Gln-Arg-Gln-Iva-Glu-Phe-Val-Arg-His-Leu-Leu-Asn-Lys-Aib-Thr-Arg-Gln-Arg-Tyr-NH2)
output: 1.6 nM

Below: the item to evaluate.
input: Write down Agonist activity (EC50), Cre-luc reporter assay measured for item H-Y[Aib]EGT[αMeF]TSDK([Gly-Gly-Gly-Gly-Oda])SI[Aib]LDKQRQ[Iva]EFVRHLLNK[Aib]TRQRY-NH2 (reading uncertain; also: printed as H-Tyr-Aib-Glu-Gly-Thr-αMePhe-Thr-Ser-Asp-Lys(-Gly-Gly-Gly-Gly-Oda)-Ser-Ile-Aib-Leu-Asp-Lys-Gln-Arg-Gln-Iva-Glu-Phe-Val-Arg-His-Leu-Leu-Asn-Lys-Aib-Thr-Arg-Gln-Arg-Tyr-NH2)
output: 2.6 nM
